Test: antimalarial activity against Dd2 strain (AID 2302)
Details: P. falciparum Dd2 in RBCs, LDH growth readout, 72 h; at 2 µM
Activity calls are given as the source filed them.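 Rule for the calls: active = growth inhibition above 50% at the single 2 µM test dose, taken to imply half-maximal potency below 2 µM; inactive = the rest.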
Select the correct class. Options are active, inactive and nothing else.

- COMPOUND: "CCCCCCCN1CC[C@@H](CCCc2ccnc3ccc(OCCCCNC(N)=O)cc23)[C@@H](CC)C1"
  CATEGORY LABEL: "inactive"
- COMPOUND: "O=C(Nc1ccc(OC2CCN(Cc3ccccc3)C2)c(Cl)c1)c1cccs1 (centres undefined)"
  CATEGORY LABEL: "active"
- COMPOUND: "CNCc1ccc(-c2cccc(CNCc3ccc(-c4ccccc4)cc3)c2)c(C(=O)OC)c1"
  CATEGORY LABEL: "inactive"
- COMPOUND: "COc1ccc(Nc2nccc(NCC(O)c3ccc(C(F)(F)F)cc3)n2)cc1 (centres undefined)"
  CATEGORY LABEL: "active"
- COMPOUND: "CCCNCc1ccc(-c2ccc(CN(Cc3ccc4c(c3)OCO4)C(=O)[C@H]3CCCO3)cc2)nc1"
  CATEGORY LABEL: "inactive"

Lookup: Hi team, can someone confirm the assay call for `COc1ccccc1CNC(=O)c1nn(-c2ccc(Cl)cc2)c(=O)c2ccccc12` ?
Found: active

Lookup: Hi, do you know how `CN1CCCN(Cc2cccc(-c3cccc(NC(=O)c4cccc(Cl)c4)c3)c2)CC1` came out in this test?
Found: inactive

Lookup: Hello, I am checking results. What call was entered for `O=C(Cc1cnc[nH]1)Nc1cccc(-c2cccc(-c3nc4ccc(F)cc4[nH]3)c2)c1` ?
Found: active

Lookup: Write down the call the test reported for this compound. Item: O=C(CCn1cncn1)N1CCCC(c2[nH]c3ccccc3c2-c2ccncc2)C1 (centres undefined)
Found: active

----------
Experiment: human hepatoma cell viability loss – ATP luminescence, cytotoxicity control for P. falciparum antimalarial project, primary screen (AID 2303)
Details: HepG2 viability, 24-48 h, at 10 µM
Active and inactive are the calls of the source.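 Rule for the calls: active = inhibition above 50%; inactive = the rest.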
Pick one and only one: Y for active, N for inactive

Example cases with answers are listed next.
- COMPOUND: "Nc1ccn([C@@H]2O[C@H](COC(c3ccccc3)(c3ccccc3)c3ccccc3)[C@@H](O)[C@@H]2O)c(=O)n1"
  CATEGORY LABEL: "N"
- COMPOUND: "COc1ccccc1CNC(=O)C(=O)Nc1c(-c2ccccc2)[nH]c2ccccc12"
  CATEGORY LABEL: "N"
- COMPOUND: "OC(CNc1ccnc(Nc2cccc(Cl)c2)n1)c1ccc(C(F)(F)F)cc1 (stereo not drawn)"
  CATEGORY LABEL: "N"

Lookup: Please share the test call associated with `CC(C)(C)C(C)(C)Cc1ccc(O)c(CN2CCN(c3ccccc3)CC2)c1` .
Found: N

Lookup: What classification did `CC(C)(C)c1ccc(-c2cc3c(ccc4nc(N)nc(N)c43)[nH]2)cc1` end up with in this test?
Found: Y

Lookup: Hello, I am checking results. What call was entered for `Cc1cnc(C(=O)Nc2cccc(-c3ccc(-c4nc5ccc(C(F)(F)F)cc5[nH]4)s3)c2)cn1` ?
Found: N

Lookup: Outcome? `NC(=NCc1ccccc1)Nc1cccc(Cc2ccccc2)n1`
Found: Y

Lookup: What did the test return for `O=C(CCc1cnc[nH]1)Nc1cccc(-c2ccc(-c3nc4ccccc4[nH]3)s2)c1` ?
Found: N

Lookup: Which result was noted for this compound in the test: `CC(C)CCOc1ccc(NC(=O)c2cccs2)cc1`
Found: N

Lookup: Assay result, entry CN(C)c1ccc(-c2csc(C(=O)NCC3CCN(CCC(C)(C)C)C3)c2)cc1 (stereo not drawn) — outcome?
Found: N

Lookup: Hello, I am checking results. What call was entered for `CCCCCOc1ccc(C(=NC)N(CCCCC)CCCCC)c2ccccc12` ?
Found: Y
